- Tested on: Gallus gallus
- method-description: Vasodepressor activity in conscious chicken
- Assay type: ADME, organism-based
- condition-info: in vivo
Where a SMILES comes first, the peptide text is derived from it. Bridges are numbered along the chain shown (N, C = ends).
measurement-kind: Activity (U/mg)

P. CC[C@H](C)[C@@H]1NC(=O)[C@H](Cc2ccc(O)cc2)NC(=O)[C@@H](N)CSSC[C@@H](C(=O)NCC(=O)N[C@@H](CC(C)C)C(=O)NCC(N)=O)NC(=O)[C@H](CC(N)=O)NC(=O)[C@H](CCC(N)=O)NC1=O (H-CYIQNCGLG-NH2; disulfide 1-6)
Q. CC[C@H](C)[C@@H]1NC(=O)[C@H](Cc2ccc(O)cc2)NC(=O)[C@@H](N)CSSC[C@@H](C(=O)N2CCC[C@H]2C(=O)N[C@@H](CC(C)C)C(=O)NCC(N)=O)NC(=O)[C@H](CC(N)=O)NC(=O)[C@H](CCC(N)=O)NC1=O
R. CC[C@H](C)[C@@H]1NC(=O)[C@H](Cc2ccc(O)cc2)NC(=O)[C@@H](N)CSSC[C@@H](C(=O)N2CCC[C@H]2C(=O)N[C@@H](CC(C)C)C(=O)NCC(N)=O)NC(=O)[C@H](CC(N)=O)NC(=O)[C@H]([C@@H](C)O)NC1=O (H-CYITNCPLG-NH2; disulfide 1-6)
S. CC[C@H](C)[C@@H]1NC(=O)[C@H](Cc2ccc(O)cc2)NC(=O)[C@@H](N)CSSC[C@@H](C(=O)NCC(=O)N[C@@H](CC(C)C)C(=O)NCC(N)=O)NC(=O)[C@H](CC(N)=O)NC(=O)[C@H]([C@@H](C)O)NC1=O (H-CYITNCGLG-NH2; disulfide 1-6)
Endpoint returns the given compounds ordered by ascending Activity. Please list each label once, in the requested order.
S, P, Q, R
